molecular target: EGFR extracellular domain (Homo sapiens, UniProt P00533); assay: Affinity test by surface plasmon resonance (Biacore T200, CM5 chip); format: binding; conditions: EGFR extracellular domain coupled on CM5 chip, analyte 4-256 nM
attributeMeasured: Ka (M⁻¹ s⁻¹)

>  <molecule>
rLZ-8 (K16A/K41A): alanine mutant of rLZ-8 at K16 and K41 (protein) MSDTALIFRLAWDVKALSFDYTPNWGRGNPNNFIDTVTFPAVLTDKAYTYRVAVSGRNLGVKPSYAVESDGSQKVNFLEYNSGYGIADTNTIQVFVVDPDTNNDFIIAQWN

>  <recordedValue>
220

$$$$
>  <molecule>
rLZ-8 (L17K): rLZ-8 mutant after surface potential optimization, L17K (protein) MSDTALIFRLAWDVKKKSFDYTPNWGRGNPNNFIDTVTFPKVLTDKAYTYRVAVSGRNLGVKPSYAVESDGSQKVNFLEYNSGYGIADTNTIQVFVVDPDTNNDFIIAQWN

>  <recordedValue>
10100

$$$$
>  <molecule>
rLZ-8 (R9A): alanine mutant of rLZ-8 at R9 (protein) MSDTALIFALAWDVKKLSFDYTPNWGRGNPNNFIDTVTFPKVLTDKAYTYRVAVSGRNLGVKPSYAVESDGSQKVNFLEYNSGYGIADTNTIQVFVVDPDTNNDFIIAQWN

>  <recordedValue>
61200

$$$$

These measurements were taken from patent US12077566B2.
